- Tested on: HCT-15 colon
- METHOD: NCI tumour cell line growth inhibition, 48 h
TGI listing for selected compounds.
METRIC NAME: TGI

{"columns": ["COMPOUND", "METRIC NAME", "VAL"],
 "data": [
  ["O=C(NNC(=S)Nc1ccccc1)C12CC3CC(CC(C3)C1)C2", "TGI", "> 100 µM"],
  ["O=c1ncc(-c2ccc(C(F)(F)F)cc2)c(NC2CCCCCC2)[nH]1", "TGI", "64.6 µM"],
  ["NCCCNc1ccc2c(c1)[n+]([O-])c1ccccc1[n+]2[O-]", "TGI", "66.3 µM"],
  ["O=C(O)C(=O)Cc1ccc2c(c1)OCO2", "TGI", "> 100 µM"],
  ["COC1Cc2c(C)c(OC(C)=O)c3cccnc3c2O1 (stereo unspecified)", "TGI", "22.1 µM"],
  ["O=C1O/C(=C\\c2ccc(O)c(Br)c2)C(c2ccc(O)cc2)=C1Cl", "TGI", "> 100 µM"],
  ["CCc1ccccc1NC(=O)/C(CC(=O)c1c(C)n([O-])c2ccccc2[n+]1=O)=N\\NS(=O)(=O)c1ccc(C)cc1", "TGI", "> 100 µM"],
  ["COC(=O)c1cc(C)ccc1/C=C1\\Cc2cc(C)c(C)cc2C1=O", "TGI", "> 100 µM"],
  ["N#CN=Nc1cc(Cl)c(N=NC#N)cc1Cl", "TGI", "> 100 µM"],
  ["C/C(CC(=O)CCCC(=O)Nc1ccc(Cl)cc1Cl)=N/NC(=O)CC#N", "TGI", "> 100 µM"],
  ["Cc1cc(C)c(C(=O)O)c(N)c1O", "TGI", "> 100 µM"]
]}

----------
- Test system: OVCAR-4 ovarian
- METHOD: NCI tumour cell line growth inhibition, 48 h

{"columns": ["COMPOUND", "TGI"],
 "data": [
  ["Nn1c(CCCl)nc2c(Br)cc(Br)cc2c1=O", "69.3 µM"],
  ["CC1(C)S[C@@H]2[C@H](NC(=O)CCC[C@@H](N)C(=O)O)C(=O)N2[C@H]1C(=O)O", "> 50 µM"],
  ["COc1ccc(C2Oc3c(cccc3OC)C=C2[N+](=O)[O-])cc1OC (stereo not drawn)", "> 100 µM"],
  ["Nc1ccccc1NC(=O)c1ccc(CSc2nc(N3CCOCC3)c3cccn3n2)cc1", "> 100 µM"],
  ["CC(=O)O[C@H](C[C@H](C(C)C)N(C)C(=O)[C@@H](NC(=O)[C@H]1CCCCN1C)C(C)C)c1nc(C(=O)N[C@@H](Cc2ccccc2)C[C@H](C)C(=O)O)c(C)s1", "> 25 µM"],
  ["CCOC(=O)[C@H](CSSc1ncnc2cc[nH]c12)NC(=O)[C@@H](C)c1ccc2cc(OC)ccc2c1", "> 100 µM"],
  ["CC(=O)O[C@H]1C(=O)[C@@]2(C)C(C(OC(=O)c3ccccc3)[C@]3(O)CC(OC(=O)C(O)C(NC(=O)c4ccccc4)c4ccc(F)cc4)C(C)=C1C3(C)C)[C@]1(OC(C)=O)CO[C@@H]1C[C@@H]2O (stereo partly drawn)", "> 10 µM"],
  ["Nc1nc(N)c2nc(CNc3ccc(C(=O)CC(CCC(=O)O)C(=O)O)cc3)cnc2n1 (stereo not drawn)", "> 100 µM"]
]}
